Attribute: pKd
# assay-system: T1, DFNB31_1, Q9P202
# T1 sequence (Q9P202 135-233, limits assumed, looked up): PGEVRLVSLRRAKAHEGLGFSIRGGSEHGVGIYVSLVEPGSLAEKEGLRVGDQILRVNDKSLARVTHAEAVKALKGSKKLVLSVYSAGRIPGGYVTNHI
# procedure-text: holdup assay
# Parameters: key: below the threshold = too weak to quantify, mostly under pKd 3.1 to 4
# experimental-conditions: plain residues with an end cap or a label only (N-terminal biotin on a linker: ado-ado)
Reply with just the number.

For orientation, consider the following solved cases.
PLPPEEESWV [GAS2L2, Q8NHY3] : 4.46
QLKSGRDSTV [TMEM178A, Q8NBL3] : 3.6

GET /values?readout=pKd&item= IQISELETNV [SLC1A7, O00341]
4.19

Entry source: paper PMC9482650
